The reported numbers originate from paper PMC9352680.

# Tested On: T1, PUF4 RNA-binding domain (Saccharomyces cerevisiae, UniProt P25339 537-888)
# T1 sequence: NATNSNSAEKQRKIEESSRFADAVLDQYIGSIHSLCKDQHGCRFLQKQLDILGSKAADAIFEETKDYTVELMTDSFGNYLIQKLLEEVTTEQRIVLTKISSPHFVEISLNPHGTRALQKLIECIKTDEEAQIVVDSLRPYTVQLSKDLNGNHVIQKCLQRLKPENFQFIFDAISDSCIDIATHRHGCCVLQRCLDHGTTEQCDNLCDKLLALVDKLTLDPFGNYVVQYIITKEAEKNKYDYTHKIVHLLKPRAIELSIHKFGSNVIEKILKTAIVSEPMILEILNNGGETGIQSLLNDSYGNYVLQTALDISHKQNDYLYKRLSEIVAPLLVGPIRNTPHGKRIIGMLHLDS
# Protocol Notes: Mg; RNA-MaP; 20 mM Na-HEPES pH 7.4, 30 mM KOAc, 0.75 mM MgCl2, 0.1% Tween-20, 5% glycerol, 0.1 mg/mL BSA, 2 mM DTT; 25 C; 0.0125-409.6 nM protein
# Assay Conditions: tags: N-His6-TEV cleaved; C-SNAP kept, Cy3B-labelled; label: tethered on chip by stalled RNA polymerase
Readout Name: Kd

Binder	Readout Name	Val
UCUCUUUCGUGUAUAUAUAUCUCUU (ssRNA) [Id_iii_S1_P3E.5_K3.1_C3.3_[T-1G]_H3.1_A3.1_F3.1_T3.2]	Kd	6.72 nM

Request: Write down Kd measured for item UCUCUUUGUAAUUCUUCUCUU (ssRNA) [Ic_S1_P4E.1_K4.1_C4.1_H4.1_A4.1_[T5A]_[A6T]_F4.1_[T8C]_[A9T]_T4.1]
Response: 123 nM

Request: Please report the measured Kd for Id_ii_S2_P4E.3_K4.2_C4.2_[T-1G]_H4.2_A4.1_F4.1_T4.2_[G10A]_[T11G] (ssRNA) RNA: UUUGAUUAAUAUGAUAUCGUUCUUUCUCGUAUAUAUUAAGUUCUUUCUCGAUAUCAUAUUAAUCUUU
Response: 266 nM
